Quick reference for solubility kinetic among some compounds
details: buffer; pH 7.4; 200.0 µM

Exam item: # lookup: solubility kinetic of O=C(Nc1ccc2c(c1)OCO2)C1CC1(Cl)Cl (centres undefined)
Marked response: > 41.1 µg/mL

Exam item: What about `CCC(=O)c1ccc(SC(=O)N(C)C)cc1O` ?
Marked response: 33.7 µg/mL

Exam item: What about `O=C(CN1C(=O)S/C(=C\c2ccccn2)C1=O)Nc1ccccc1` ?
Marked response: 1.5 µg/mL

Exam item: What about `COc1ccc(C(=O)NC(=S)N2CCOCC2)cc1OC` ?
Marked response: > 46.6 µg/mL

Exam item: What about `O=c1[nH]c2ccc(S(=O)(=O)Nc3ccc(Cl)cc3)cc2o1` ?
Marked response: > 48.7 µg/mL

Exam item: What about `C=CCNc1nc(NCc2ccccc2)c(C#N)c2c1CN(C)CC2` ?
Marked response: 3 µg/mL

Exam item: What about CC(=NCC1CCCO1)c1c(O)n(-c2ccccc2C)c(=O)[nH]c1=O (centres undefined) ?
Marked response: > 51.5 µg/mL

Exam item: What about COc1cc(C2NC(=S)NC3=C2C(=O)CCC3)ccc1O (centres undefined) ?
Marked response: > 45.7 µg/mL

***
Exam item: # lookup: solubility kinetic of `O=C(c1ccc(=O)[nH]c1)N1CCCc2ccccc21`
Marked response: > 38.1 µg/mL

Exam item: What about `CN(C)c1ccc(/C=N/NC(=O)c2ccc3nc[nH]c3c2)cc1` ?
Marked response: > 46.1 µg/mL

Exam item: What about `O=C(NCc1c[nH]c2ccccc12)c1ccccc1` ?
Marked response: > 37.5 µg/mL

Exam item: What about `O=C(O)CCCCCNC(=O)c1ccc(C(=O)NCCCCCC(=O)O)cc1` ?
Marked response: 53.9 µg/mL

Exam item: What about `CCn1c(SCc2ccccc2)nc2cc(OC)c(OC)cc2c1=O` ?
Marked response: < 0.4 µg/mL

Exam item: What about `COc1ccc(NS(=O)(=O)c2cccc(C(=O)OCC(=O)NC3CC3)c2)cc1` ?
Marked response: 11.6 µg/mL
